TESTED ON: PIK3CA (human)
Grouping by measured IC50 is done with the following cut points: L (below 6 nM), M (6 nM to below 20 nM), H (20 nM or more)

* COCC(=O)Nc1ccc(-c2ccc3ncc4c(c3c2)n(-c2ccc(C(C)(C)C#N)cc2)c(=O)n4C)cn1 | M

Band for the recorded IC50 of COC(=O)Nc1ccc(-c2ccc3ncc4c(c3c2)n(-c2cccnc2OC)c(=O)n4C)cn1 ? H

Band for the recorded IC50 of CNC(=O)Nc1ccc(-c2ccc3ncc4c(c3c2)n(-c2ccc(F)cc2C)c(=O)n4C)cn1 ? M

Band for the recorded IC50 of CNC(=O)Nc1ccc(-c2ccc3ncc4c(c3c2)n(-c2cccc(Cl)c2F)c(=O)n4C)cn1 ? L

Band for the recorded IC50 of Cn1c(=O)n(-c2cccc(C(F)(F)F)c2)c2c3cc(-c4ccc(NC(=O)CC#N)nc4)ccc3ncc21 ? M

Band for the recorded IC50 of C#Cc1cncc(-c2ccc3ncc4c(c3c2)n(-c2ccc(C(C)(C)C#N)cc2)c(=O)n4C)c1 ? M
